# target.or.system: SCD5 (Homo sapiens, UniProt Q86SK9)
# Construct: host or cells: S. cerevisiae ole1Δ strain (W303 pdr1Δ pdr3Δ background), plasmid pRS316 with TDH3 promoter and CYC1 terminator
# Sequence (Q86SK9 whole entry): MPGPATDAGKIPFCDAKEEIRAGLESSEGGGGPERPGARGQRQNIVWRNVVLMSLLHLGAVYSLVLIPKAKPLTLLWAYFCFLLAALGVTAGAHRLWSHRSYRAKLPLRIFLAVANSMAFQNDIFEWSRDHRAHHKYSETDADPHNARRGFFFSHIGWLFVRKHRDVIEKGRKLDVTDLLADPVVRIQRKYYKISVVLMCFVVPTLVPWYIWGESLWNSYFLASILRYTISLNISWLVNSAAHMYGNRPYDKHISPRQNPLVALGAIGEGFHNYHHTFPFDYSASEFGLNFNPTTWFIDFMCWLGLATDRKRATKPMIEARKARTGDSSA
# assay.method.text: Growth inhibition of humanized yeast strain expressing SCD5 as sole desaturase
# Type: cell-based
# condition.notes: growth inhibition of humanized yeast strain expressing human SCD5
measurement.label: log10(IC50) (log10 of the value in µM)

# molecule, log10(IC50)
data = [
    ("CC(C)c1noc2ccc(-c3noc(C4CCN(C(=O)OC(C)(C)C)CC4)n3)cc12 [Compound 639]", 0.68),
    ("COC(=O)N1CCN(c2noc(-c3ccc4cnn(C5COC5)c4c3)n2)CC1 [Compound 713]", -2.00),
    ("CCOCC1CCN(c2nc(-c3ccc4cnn(C(C)C)c4c3)no2)CC1 [Compound 614]", 1.14),
    ("CC(C)(C)CC(=O)N1CCC(c2nc(-c3ccc4cnn(C5COC5)c4c3)no2)CC1 [Compound 617]", -0.92),
    ("COC1CCC(S(=O)(=O)N2CCC(c3nc(-c4ccc5cnn(C(C)C)c5c4)no3)CC2)CC1 (centres unmarked) [Compound 675]", -2.00),
    ("CC(C)n1ncc2ccc(-c3noc(C4CCN(C(=O)C5(C)CCCO5)CC4)n3)cc21 (centres unmarked) [Compound 703]", -0.92),
    ("COC(=O)N1CCC(F)(c2nc(-c3ccc4cnn(C(C)C)c4c3)no2)CC1 [Compound 622]", 0.21),
    ("CC(C)N1C(=O)Cc2ccc(-c3noc(C4CCN(C(=O)CC(C)(C)C)CC4)n3)cc21 [Compound 611]", 0.87),
    ("O=C(OC1CC1)N1CCC(c2nc(-c3ccc4cnn(C5COC5)c4c3)no2)CC1 [Compound 618]", -1.00),
]

====

# target.or.system: SCD1 (Homo sapiens)
# Construct: host or cells: S. cerevisiae ole1Δ strain (W303 pdr1Δ pdr3Δ background), plasmid pRS316 with TDH3 promoter and CYC1 terminator
# Sequence (O00767 1-359): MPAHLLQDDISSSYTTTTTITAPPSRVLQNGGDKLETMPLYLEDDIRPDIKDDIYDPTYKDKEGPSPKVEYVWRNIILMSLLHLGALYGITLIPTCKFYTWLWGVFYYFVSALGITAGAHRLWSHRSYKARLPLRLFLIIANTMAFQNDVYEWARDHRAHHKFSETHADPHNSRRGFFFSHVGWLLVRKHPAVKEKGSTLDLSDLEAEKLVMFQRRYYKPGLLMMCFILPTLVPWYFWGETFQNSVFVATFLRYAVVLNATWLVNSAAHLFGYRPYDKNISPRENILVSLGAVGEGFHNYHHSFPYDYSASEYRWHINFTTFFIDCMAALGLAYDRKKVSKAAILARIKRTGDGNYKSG
# assay.method.text: Growth inhibition of humanized yeast strain expressing SCD1 as sole desaturase
# Format: cell-based
# condition.notes: humanized yeast strain expressing SCD1
# Procedure: Strain oleΔ (yeast ole1 deletion mutant) was constructed by deleting OLE1 with NAT-MX6 in BY4741, amplifying the deletion cassette from the genomic DNA of the resulting strain with primers flanking the ORF by 1000 bp upstream and downstream, transforming the resulting deletion cassette into W303 pdr1Δ pdr3Δ, and plating transformants on YPD media containing G418 (200 μg/mL) and nourseothricin ([…]) with 0.01% TWEEN®-20 and 0.5 mM oleic and palmitoleic acids. […]

# compound, IC50
rows = [
    ("Cc1nnc(C)c2cc(-c3noc(C4CCN(C(=O)CNC(=O)c5ccccc5)CC4)n3)ccc12", "> 45 µM"),
    ("CCOc1ccc(-c2noc(N3CCC(C(=O)N4CCCC(c5ccccc5)C4)CC3)n2)cc1OC (stereo not shown)", "32.8 µM"),
    ("O=C(CN1Cc2ccccc2C1=O)N1CCC(c2nc(-c3ccc4c(c3)COC4)no2)CC1", "40.6 µM"),
    ("COc1cccc(-c2noc(C3CCN(C(=O)CNC(=O)c4ccc(C)c(C)c4)CC3)n2)c1", "> 45 µM"),
    ("CCOc1cnc(-c2noc(C3CCN(C(=O)CN4Cc5ccccc5C4=O)CC3)n2)cc1OC", "> 45 µM"),
    ("O=C(NCC(=O)N1CCC(c2nc(-c3cccc(F)c3)no2)CC1)c1ccccc1", "> 45 µM"),
    ("COc1ccc(-c2nsc(C3CCN(C(=O)CNC(=O)c4ccccc4)CC3)n2)cc1OC", "> 45 µM"),
    ("Cc1ccc(-c2nc(C3CCN(C(=O)[C@H]4CC(=O)N(c5ccc(C)c(C)c5)C4)CC3)no2)cc1 (single isomer, unassigned)", "> 45 µM"),
    ("CCN(Cc1nc(-c2ccc(OC)c(OC)c2)no1)C(=O)Cc1cccc2ccccc12", "> 45 µM"),
    ("CCOc1ccc(-c2noc(C3CCN(C(=O)[C@H]4CCN(C(=O)c5ccccc5)C4)CC3)n2)cc1OC", "> 45 µM"),
    ("Cc1ccc(-c2noc(C3CCN(C(=O)[C@@H]4CC(=O)N(c5ccc(C)c(C)c5)C4)CC3)n2)cc1", "> 45 µM"),
    ("CC(C)n1ncc2ccc(-c3noc(C4CCN(C(=O)CNC(=O)c5ccc(F)cc5)CC4(F)F)n3)cc21 (stereo not shown)", "> 45 µM"),
    ("Cn1c(=O)n(C)c2cc(-c3noc(C4CCN(C(=O)CNC(=O)c5cccnc5)CC4)n3)ccc21", "> 45 µM"),
    ("O=C(NCC(=O)N1CCC(c2nc(-c3ccc(F)c(F)c3)no2)CC1)c1ccccc1", "> 45 µM"),
    ("O=C(CN1Cc2ccccc2C1=O)N1CCC(c2nc(-c3ccc4nonc4c3)no2)CC1", "> 45 µM"),
    ("CCN1C(=O)COc2ccc(-c3nc(C(C)c4ccccc4)no3)cc21 (stereo not shown)", "40.7 µM"),
]

====

Entries and their IC50 values follow.
# target.or.system: SCD5 (Homo sapiens, UniProt Q86SK9)
# Construct: host or cells: S. cerevisiae ole1Δ strain (W303 pdr1Δ pdr3Δ background), plasmid pRS316 with TDH3 promoter and CYC1 terminator
# assay.method.text: Growth inhibition of humanized yeast strain expressing SCD5 as sole desaturase
# Assay type: cell-based
# condition.notes: humanized yeast strain expressing SCD5

# molecule, IC50
records = [
    ("COc1ccc(-c2noc(C3CCN(C(=O)CN)CC3)n2)cc1OC", "30 µM"),
    ("COc1ccc(-c2noc(C3CCN(C(=O)[C@H]4CC(=O)N(c5ccc(C)c(C)c5)C4)CC3)n2)cc1OC (single isomer, unassigned)", "> 45 µM"),
    ("Cc1nn(C)c2cc(-c3noc(C4CCN(C(=O)C5CNC(=O)C5)CC4)n3)ccc12 (stereo not drawn)", "30 µM"),
    ("Cc1nn(C)c2cc(-c3noc(N4CCN(C(=O)[C@H]5CC(=O)N(c6ccccc6)C5)CC4)n3)cnc12", "> 45 µM"),
    ("Cc1nn(C)c2cc(-c3noc(N4C[C@H]5CN(C(=O)CNC(=O)c6ccccc6)C[C@H]5C4)n3)ccc12", "> 45 µM"),
    ("Cc1nn(C)c2cc(-c3noc(C4CCN(C(=O)[C@@H]5CC(=O)N(c6ccccc6)C5)CC4)n3)ccc12", "> 45 µM"),
]

====

# target.or.system: SCD5 (Homo sapiens, UniProt Q86SK9)
# Construct: host or cells: S. cerevisiae ole1Δ strain (W303 pdr1Δ pdr3Δ background), plasmid pRS316 with TDH3 promoter and CYC1 terminator
# assay.method.text: Growth inhibition of humanized yeast strain expressing SCD5 as sole desaturase
# Assay type: cell-based
# condition.notes: growth inhibition of humanized yeast strain expressing human SCD5
measurement.label: IC50 (nM)

# compound, target.or.system, censoring.sign, experimental.result
measured = [
    ("CC(C)c1noc2ccc(-c3noc(C4CCN(C(=O)CC5(C)CC5)CC4)n3)cc12 [Compound 670]", "SCD5 (Homo sapiens, UniProt Q86SK9)", "=", 3790),
    ("CC(C)(C)OC(=O)N1CCC(c2nc(-c3ccc4oc(=O)n(C5COC5)c4c3)no2)CC1 [Compound 649]", "SCD5 (Homo sapiens, UniProt Q86SK9)", "=", 259),
    ("CC(C1CC1)n1ncc2ccc(-c3noc(C4CCN(C(=O)OC(C)(C)C)CC4)n3)cc21 (stereo not shown) [Compound 640]", "SCD5 (Homo sapiens, UniProt Q86SK9)", "=", 3980),
    ("CC(C)n1ncc2ccc(N3CC4(CCN(C(=O)CC(C)(C)C)CC4)C3)cc21 [Compound 632]", "SCD5 (Homo sapiens, UniProt Q86SK9)", ">", 45000),
    ("CC1(OC(=O)N2CCN(c3nc(-c4ccc5cnn(C6COC6)c5c4)no3)CC2)CC1 [Compound 620]", "SCD5 (Homo sapiens, UniProt Q86SK9)", "=", 13),
    ("CC(C)c1noc2ccc(-c3noc(C4CCNCC4)n3)cc12 [Compound 723]", "SCD5 (Homo sapiens, UniProt Q86SK9)", ">", 45000),
    ("CC(C)(C)OC(=O)N1CCN(c2nc(-c3ccc4cnn(C5CCC5)c4c3)no2)CC1 [Compound 721]", "SCD5 (Homo sapiens, UniProt Q86SK9)", "=", 1650),
    ("O=C(c1ccccc1Cl)N1CCN(c2noc(-c3ccc4cnn(C5COC5)c4c3)n2)CC1 [Compound 726]", "SCD5 (Homo sapiens, UniProt Q86SK9)", "=", 10),
    ("CC(CCO)n1ncc2ccc(-c3noc(C4CCN(C(=O)OC(C)(C)C)CC4)n3)cc21 (stereo not shown) [Compound 641]", "SCD5 (Homo sapiens, UniProt Q86SK9)", "=", 6720),
    ("CC(C)(C)OC(=O)N1CCC(c2noc(-c3ccc4cnn(C5COC5)c4c3)n2)CC1 [Compound 643]", "SCD5 (Homo sapiens, UniProt Q86SK9)", "=", 10),
    ("CC(C)(C)OC(=O)N1CCC(c2nc(-c3cccc(OC4COC4)c3)no2)CC1 [Compound 672]", "SCD5 (Homo sapiens, UniProt Q86SK9)", "=", 441),
    ("CC(C)n1ncc2ccc(-c3nc(C4CN(C(=O)CC(C)(C)C)C4)no3)cc21 [Compound 606]", "SCD5 (Homo sapiens, UniProt Q86SK9)", "=", 737),
    ("O=C(c1ccccc1Cl)N1CCC(c2noc(-c3ccc4cnn(C5COC5)c4c3)n2)CC1 [Compound 697]", "SCD5 (Homo sapiens, UniProt Q86SK9)", "=", 59),
    ("O=C(c1ccccc1F)N1CCN(c2noc(-c3ccc4cnn(C5COC5)c4c3)n2)CC1 [Compound 725]", "SCD5 (Homo sapiens, UniProt Q86SK9)", "=", 11),
    ("CC(C)N1C(=O)Cc2ccc(-c3noc(C4CCN(C(=O)c5ccccc5Cl)CC4)n3)cc21 [Compound 612]", "SCD5 (Homo sapiens, UniProt Q86SK9)", "=", 2380),
    ("CC(C)n1ncc2ccc(-c3noc(C4CCN(C(=O)C56CC(C5)C6)CC4)n3)cc21 [Compound 705]", "SCD5 (Homo sapiens, UniProt Q86SK9)", "=", 174),
]
